I'd be grateful if you could share measured Population Membrane Permeable-Phenotype (%) for these entries.
system: Fibroblast; assay: Multiplex assay against human fibroblast; type: toxicity, cell-based; details: 12 h, 1 µM, compound concentration 1 uM, replicate 2
Don't forget the unit after the number, please.

>  <compound>
Br.CS(=O)(=O)Nc1c(O)ccc2c1CCCC2C1=NCCN1 (stereo not given)

>  <systemTested>
Fibroblast

>  <result>
7%

$$$$

Give one value of Population Membrane Permeable-Phenotype (%) per listed compound.
1. O=C(CCCc1ccccc1)Nc1nc2ccccc2c(=O)s1
2. N#Cc1c(Oc2cccc(OS(=O)(=O)CCCC(F)(F)F)c2)cccc1C(F)(F)F
3. CC[C@@H](C)Nc1nc(C)nc2c(-c3ccc(OC)nc3C)c(C)nn12
4. CN1CCN(c2cc(-c3ccccc3)nc(N)n2)CC1
5. COc1cccc2c1c(NS(=O)(=O)c1ccc(Cl)s1)nn2Cc1cccc(CNC(=O)C(C)(C)O)c1

Reply:
1. 9%
2. 9%
3. 15%
4. 11%
5. 4%

Each compound below has a reported value. Please supply its Population Membrane Permeable-Phenotype (%).
1. Cc1c(CC(=O)O)c2cccnc2n1Cc1ccc(S(C)(=O)=O)cc1C(F)(F)F
2. C[C@H](N)COC(=O)[C@@H](CCCCN)NC(=O)Cc1c(-c2ccc3ccccc3c2)[nH]c2c1ccc1ccccc12
3. CC(/C=C1\SC(=S)N(CCCC(=O)Nc2ccc(C(=O)O)c(O)c2)C1=O)=C\c1ccccc1
4. CCCOc1ccc2[nH]cc(C3=CCNCC3)c2n1.Cl

Reply:
["13%", "5%", "13%", "8%"]
